These entries and their values trace back to PubChem BioAssay (NCATS).

System: Dd2
EXPERIMENT DESCRIPTION: qHTS profiling for inhibitors of Plasmodium falciparum proliferation (AID 504749); note: nearly all actives have a fitted effect of over 60% in size
CONDITION DESCRIPTION: P. falciparum in erythrocytes, SYBR Green DNA, 72 h; series mostly up to 28.7 µM
Records with an inconclusive call do not appear. Activity calls are given as the source filed them. Calls come from the whole dose curve; as a rule, active = well fitted inhibition curve with a large enough effect; inconclusive = small, poorly fitted or top-dose-only effect; inactive = flat fitted curve, though single readings scatter.
Classes used: active, inactive

1) C[C@]12CCC(=O)C=C1[C@@H]1C[C@H]1[C@H]1[C@@H]3[C@@H]4C[C@H]4[C@@]4(CCC(=O)O4)[C@@]3(C)CC[C@@H]12; inactive
2) OCC(O)C(O)C(O)C(O)CO (stereo not given); inactive
3) CC(O)C1CCC2C3CCC4CC(O)CCC4(C)C3CCC12C (stereo not given); inactive
4) C=NC(C(=O)NC1C(=O)N2C1SC(C)(C)C2C(=O)O)c1ccccc1 (stereo not given); inactive
5) COc1cc2c(cc1O)CCN[C@@]21CS[C@H]2c3c(OC(C)=O)c(C)c4c(c3C(COC1=O)N1C2C2c3c(cc(C)c(OC)c3O)CC([C@@H]1O)N2C)OCO4 (stereo not given in full); active
6) NC(=O)OC[C@@H]1[C@H](NC(=O)/C(=N/OCC(=O)O)c2csc(N)n2)C(=O)N1S(=O)(=O)O; inactive
7) OCC1OC(O)C(O)C(O)C1O (stereo not given); inactive
8) CO/N=C(/C(=O)N[C@@H]1C(=O)N2C(C(=O)O)=C(CSC(=O)c3ccco3)CSC12)c1csc(N)n1 (stereo not given in full); inactive
9) CCCC[C@H]1C(=O)N(c2ccccc2)N(c2ccc(O)cc2)C1=O; inactive
10) C=CCN1CC(C(=O)N(CCCN(C)C)C(=O)NCC)CC2c3cccc4[nH]cc(c34)CC21 (stereo not given); active

###

SYSTEM UNDER TEST: Peroxisome proliferator-activated receptor alpha (Homo sapiens) (UniProt Q07869)
Sequence (Q07869 whole entry, looked up): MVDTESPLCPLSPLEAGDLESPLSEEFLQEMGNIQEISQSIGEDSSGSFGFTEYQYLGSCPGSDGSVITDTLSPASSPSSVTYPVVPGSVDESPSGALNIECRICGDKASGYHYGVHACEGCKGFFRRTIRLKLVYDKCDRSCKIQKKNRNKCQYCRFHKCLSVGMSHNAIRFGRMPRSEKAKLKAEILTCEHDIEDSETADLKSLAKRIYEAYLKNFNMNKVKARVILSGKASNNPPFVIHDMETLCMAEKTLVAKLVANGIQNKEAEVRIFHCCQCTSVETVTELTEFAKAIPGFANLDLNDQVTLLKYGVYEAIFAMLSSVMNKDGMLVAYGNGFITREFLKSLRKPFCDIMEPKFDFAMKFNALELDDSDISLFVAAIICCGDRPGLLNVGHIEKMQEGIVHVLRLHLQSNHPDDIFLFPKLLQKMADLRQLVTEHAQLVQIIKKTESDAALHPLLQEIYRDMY
EXPERIMENT DESCRIPTION: qHTS assay for small molecule agonists of the peroxisome proliferator-activated receptor alpha (PPARalpha) signaling pathway (AID 651778); note: % of control where 0% means no effect
CONDITION DESCRIPTION: PathHunter PPARalpha complementation, chemiluminescence, 6 h; active compounds read high
Activity calls are given as the source filed them. The call rests on the fitted dose curve; in most records, active means well fitted activation curve with a large enough effect; inconclusive means small, poorly fitted or top-dose-only effect; inactive means flat fitted curve, though single readings scatter.
Listing: max response of selected compounds
RECORDED METRIC: max response

1. O=C1OC2(c3cc(Br)c(O)c(Br)c3Oc3c2cc(Br)c(O)c3Br)c2c(Cl)c(Cl)c(Cl)c(Cl)c21; 0.0759% (inactive)
2. CNc1ccc(O)cc1; -6.09% (inactive)
3. C=C(C)c1ccccc1; -0.0788% (inactive)
4. CCCCCC/C(C=O)=C\c1ccccc1; -1.11% (inactive)
5. Cc1ccc(S(=O)(=O)Oc2ccc(N=Nc3ccc(-c4ccc(N=Nc5c(O)ccc6cc(S(=O)(=O)O)cc(S(=O)(=O)O)c56)c(C)c4)cc3C)cc2)cc1; -11.2% (inactive)
6. O=c1oc2cc(O)ccc2c2oc3cc(O)ccc3c12; -1.88% (inactive)

###

System: 3D7
EXPERIMENT DESCRIPTION: qHTS profiling for inhibitors of Plasmodium falciparum proliferation (AID 504749); note: nearly all actives have a fitted effect of over 60% in size
CONDITION DESCRIPTION: P. falciparum in erythrocytes, SYBR Green DNA, 72 h; series mostly up to 28.7 µM
Inconclusive results are not listed. Calls of active or inactive are those of the source. The call rests on the fitted dose curve; in most records, active means well fitted inhibition curve with a large enough effect; inconclusive means small, poorly fitted or top-dose-only effect; inactive means flat fitted curve, though single readings scatter.
Outcome codes: y = active, n = inactive

1. Cc1ccc(/C=C2/C(=O)C3(C)CCC2C3(C)C)cc1 (stereo unspecified); n
2. CC(=O)OC1C([N+]2(C)CCCCC2)C[C@H]2C3CC[C@H]4C[C@H](OC(C)=O)C([N+]5(C)CCCCC5)CC4(C)C3CCC12C (stereo partly specified); n
3. CC(CN1CC(=O)NC(=O)C1)N1CC(=O)NC(=O)C1 (stereo unspecified); n
4. CC(=O)NC[C@@H]1CN(c2ccc(N3CCOCC3)c(F)c2)C(=O)O1; n
5. O=C(O)[C@H]1C[C@@H](CP(=O)(O)O)CCN1; n
6. NC[C@@H]1O[C@H](OC2[C@@H](CO)O[C@@H](OC3[C@H](O)[C@H](N)C[C@H](N)[C@H]3OC3O[C@H](CO)[C@@H](O)[C@H](O)[C@@H]3N)[C@H]2O)C(N)[C@H](O)[C@@H]1O (stereo partly specified); n
7. C[C@]12CC[C@@H]3c4ccc(O)cc4CC[C@H]3[C@@H]1C[C@H](O)C2O (stereo partly specified); n
8. CCCCCCCCCCCCCCCC(=O)OCC(COP(=O)(O)OCC[N+](C)(C)C)OC(=O)CCCCCCCCCCCCCCC (stereo unspecified); n
9. NC(=O)NC(CCC(=O)O)C(=O)O (stereo unspecified); n
10. CN1[C@H]2CC(OC(=O)[C@H](CO)c3ccccc3)C[C@H]1[C@H]1O[C@H]12 (stereo partly specified); n
11. CC(=O)N[C@H]1[C@H](O[C@@H]2c3ccc(c(Cl)c3)Oc3cc4cc(c3O[C@@H]3O[C@H](CO)[C@@H](O)[C@H](O)C3C)Oc3ccc(cc3Cl)C[C@H]3NC(=O)[C@@H](N)c5ccc(O)c(c5)Oc5cc(O)cc(c5)[C@H](NC3=O)C(=O)N[C@H]4C(=O)N[C@H]3C(=O)N[C@@H]2C(=O)N[C@@H](C(=O)O)c2cc(O)cc(O[C@H]4O[C@H](CO)[C@@H](O)C(O)[C@@H]4O)c2-c2cc3ccc2O)O[C@H](CO)[C@@H](O)[C@@H]1O (stereo partly specified); n
12. C[C@@H]1CCN(C(=O)[C@H](CCCNC(=N)N)NS(=O)(=O)c2cccc3c2NC[C@H](C)C3)[C@@H](C(=O)O)C1; n
13. Cc1ccc(S(=O)(=O)NC(=O)NC(C)Cc2ccccc2)cc1 (stereo unspecified); n
14. OCC1OC(O)C(O)C(O)C1O (stereo unspecified); n
15. OCC(CO)NC1C[C@](O)(CO)[C@@H](O)[C@H](O)[C@H]1O (stereo partly specified); n
16. C=C[C@H]1CN2CCC1C[C@H]2[C@H](O)c1ccnc2ccc(OC)cc12 (stereo partly specified); y

###

EXPERIMENT DESCRIPTION: Cell Viability - LYMP2-013 (AID 970);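 note: cells exposed to compound for 24 h at 37 °C; nearly all actives have a fitted effect of over 55% in size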
CONDITION DESCRIPTION: LYMP2-013 lymphoblastoid cells viability; series mostly up to 92.2 µM
Records with an inconclusive call do not appear. The source made the active and inactive calls. Calls follow the shape of the dose curve; as a rule, active = well fitted cell-killing curve with a large enough effect; inconclusive = small, poorly fitted or top-dose-only effect; inactive = flat fitted curve, though single readings scatter.
Labels: True (active), False (inactive)

1. Oc1ccc2cc(SSc3ccc4cc(O)ccc4c3)ccc2c1; True
2. CN1[C@H]2CC(OC(=O)[C@H](CO)c3ccccc3)C[C@H]1[C@H]1O[C@H]12 (stereo partly specified); False
3. O=C(/C=C/c1ccc(O)c(O)c1)OC1C[C@](O)(C(=O)O)C[C@@H](O)[C@H]1O (stereo partly specified); False
4. O=C1OC(O)C(C(Cl)Cl)=C1Cl (stereo unspecified); True
5. Cc1cccc(O)c1C; False
6. O=C=Nc1ccc(Cc2ccc(N=C=O)cc2)cc1; False

###

System: ECU
EXPERIMENT DESCRIPTION: qHTS profiling for inhibitors of Plasmodium falciparum proliferation (AID 504749); note: nearly all actives have a fitted effect of over 60% in size
CONDITION DESCRIPTION: P. falciparum in erythrocytes, SYBR Green DNA, 72 h; series mostly up to 28.7 µM
Records with an inconclusive call do not appear. Activity calls are given as the source filed them. Calls follow the shape of the dose curve; as a rule, active = well fitted inhibition curve with a large enough effect; inconclusive = small, poorly fitted or top-dose-only effect; inactive = flat fitted curve, though single readings scatter.
Outcomes: active, inactive

1. OCCN1CC(O)C(O)C(O)C1CO (centres undefined); inactive
2. C/C=C\C[C@H](C)[C@H](O)[C@H]1C(=O)N[C@@H](CC)C(=O)N(C)CC(=O)N(C)[C@@H](CC(C)C)C(=O)N[C@@H](C(C)C)C(=O)N(C)[C@@H](CC(C)C)C(=O)N[C@@H](C)C(=O)N[C@@H](C)C(=O)N(C)[C@@H](CC(C)C)C(=O)N(C)[C@@H](CC(C)C)C(=O)N(C)[C@@H](C(C)C)C(=O)N1C; active
3. NC(=O)C1CC2(NC(=O)NC2=O)c2cc(F)ccc2O1 (centres undefined); inactive
4. C=C(NCc1ccccc1)c1ccccc1O; inactive
5. Cc1cnc(C(=O)O)cn1; inactive
6. Cc1ccc(S(=O)(=O)NC(=O)NC(C)Cc2ccccc2)cc1 (centres undefined); inactive
7. CN(C)CC[C@@](O)(c1ccccc1)c1ccccc1Cl; active
8. Nc1nc(F)nc2c1ncn2[C@@H]1O[C@H](CO)[C@@H](O)[C@H]1O; inactive
9. CC[C@]1([C@H]2O[C@@H]([C@@H]3O[C@](O)(CO)[C@@H](C)C[C@H]3C)C[C@H]2C)CC[C@@H]([C@]2(C)CC[C@@]3(C[C@@H](O)[C@@H](C)[C@@H]([C@H](C)[C@H](OC)[C@H](C)C(=O)O)O3)O2)O1; active

###

Test system: AS120
EXPERIMENT DESCRIPTION: qHTS profiling for inhibitors of Plasmodium falciparum proliferation (AID 504749); note: nearly all actives have a fitted effect of over 60% in size
CONDITION DESCRIPTION: P. falciparum in erythrocytes, SYBR Green DNA, 72 h; series mostly up to 28.7 µM
Results filed as inconclusive are left out. Activity calls are given as the source filed them. Calls follow the shape of the dose curve; as a rule, active = well fitted inhibition curve with a large enough effect; inconclusive = small, poorly fitted or top-dose-only effect; inactive = flat fitted curve, though single readings scatter.
Possible outcomes: YES for active, NO for inactive

1. Cn1cc(C(=O)[C@@H]2CCc3[nH]cnc3C2)c2ccccc21; NO
2. NC(C(=O)O)c1ccc(O)cc1 (centres undefined); NO
3. COC(=O)C1[C@@H](OC)C(OC(=O)COc2ccc(OC)cc2)C[C@@H]2CN3CCc4c([nH]c5cc(OC)ccc45)[C@H]3C[C@H]12 (some centres undefined); YES
4. CC[C@@]1(O)CC2CN(CCc3c([nH]c4ccccc34)[C@](C(=O)OC)(c3cc4c(cc3OC)N(C)C3[C@@](O)(C(=O)OC)C(OC(C)=O)[C@]5(CC)C=CCN6CC[C@@]43C65)C2)C1 (some centres undefined); YES
